Test system: ADSC and ECFC co-culture
EXPERIMENT NOTES: VEGF-A induced cord formation assay (ADSC and ECFC co-culture; neo-mode and established mode)
Type: cell-based, human
APPLIED CONDITIONS: Homo sapiens, established mode; read-out: IC50 cord formation

| COMPOUND | IC50 [nM] |
| --- | --- |
| Cc1ccc(C(=O)Nc2ccc(Oc3cc4cnn(C)c4cc3-c3cn[nH]c3)c(F)c2)c(=O)n1-c1ccc(F)cc1 [LY2801653] | 16 |

###

Tested on: ADSC and ECFC co-culture
EXPERIMENT NOTES: VEGF-A induced cord formation assay (ADSC and ECFC co-culture; neo-mode and established mode)
Format: cell-based, human
APPLIED CONDITIONS: Homo sapiens, neo-mode; read-out: IC50 cord formation
pIC50: −log10 of the molar value.

| COMPOUND STRING | pIC50 |
| --- | --- |
| Cc1ccc(C(=O)Nc2ccc(Oc3cc4cnn(C)c4cc3-c3cn[nH]c3)c(F)c2)c(=O)n1-c1ccc(F)cc1 | 7.89 |
